Numbers sourced from ChEMBL document CHEMBL3044834.

tested on: Digitaria sanguinalis; assay: Herbicidal activity against Digitaria sanguinalis (hairy crabgrass) assessed as inhibition of fresh weed plant weight at 1500 g/ha using pre-emergence treatment protocol; assay type: functional
Kindly state inhibition at 1500 g/ha for each of the entries shown.
The response must be a number in % with no trailing unit.

Query block: Fill: inhibition at 1500 g/ha (Digitaria sanguinalis) for this compound CCCCCOc1cc(-n2nnc3c(cnn3C)c2=O)c(F)cc1Cl
Result block: 0

Query block: Give the observed inhibition at 1500 g/ha of C#CCN1C(=O)COc2cc(F)c(-n3nnc4c(cnn4CCC)c3=O)cc21 for Digitaria sanguinalis.
Result block: 100

Query block: Provide the reported inhibition at 1500 g/ha (system: Digitaria sanguinalis) for C=CCOc1cc(-n2nnc3c(c(C)nn3C)c2=O)c(F)cc1Cl
Result block: 0

Query block: Fill in: inhibition at 1500 g/ha on Digitaria sanguinalis, entry C#CCOc1cc(-n2nnc3c(c(C(F)(F)F)nn3C)c2=O)c(F)cc1Cl
Result block: 6.7

Query block: # assay system Digitaria sanguinalis: give inhibition at 1500 g/ha of CCOC(=O)Oc1cc(-n2nnc3c(cnn3C)c2=O)c(F)cc1Cl
Result block: 0

Query block: With Digitaria sanguinalis as the test system, provide measured inhibition at 1500 g/ha for this compound: COc1cc(-n2nnc3c(cnn3C)c2=O)c(F)cc1Cl
Result block: 0

Query block: Retrieve inhibition at 1500 g/ha on Digitaria sanguinalis; query C#CCOc1cc(-n2nnc3c(cnn3CC=C)c2=O)c(F)cc1Cl
Result block: 37.4

Query block: Please respond with reported inhibition at 1500 g/ha (system Digitaria sanguinalis) for C#CCN1C(=O)COc2cc(F)c(-n3nnc4c(cnn4C)c3=O)cc21 .
Result block: 100

Query block: Provide Digitaria sanguinalis inhibition at 1500 g/ha reading for C#CCOc1cc(-n2nnc3nn(CC=C)cc3c2=O)c(F)cc1Cl .
Result block: 79.6

Query block: Quote inhibition at 1500 g/ha with test system Digitaria sanguinalis for Cn1ncc2c(=O)n(-c3cc(O)c(Cl)cc3F)nnc21
Result block: 0

Query block: Answer briefly: inhibition at 1500 g/ha recorded on Digitaria sanguinalis for C=CCOc1cc(-n2nnc3c(cnn3C)c2=O)c(F)cc1Cl
Result block: 0
